Target: Nav1.7 (Homo sapiens, UniProt Q15858)
Construct: host or cells: HEK293 or CHO
Sequence (Q15858 whole entry): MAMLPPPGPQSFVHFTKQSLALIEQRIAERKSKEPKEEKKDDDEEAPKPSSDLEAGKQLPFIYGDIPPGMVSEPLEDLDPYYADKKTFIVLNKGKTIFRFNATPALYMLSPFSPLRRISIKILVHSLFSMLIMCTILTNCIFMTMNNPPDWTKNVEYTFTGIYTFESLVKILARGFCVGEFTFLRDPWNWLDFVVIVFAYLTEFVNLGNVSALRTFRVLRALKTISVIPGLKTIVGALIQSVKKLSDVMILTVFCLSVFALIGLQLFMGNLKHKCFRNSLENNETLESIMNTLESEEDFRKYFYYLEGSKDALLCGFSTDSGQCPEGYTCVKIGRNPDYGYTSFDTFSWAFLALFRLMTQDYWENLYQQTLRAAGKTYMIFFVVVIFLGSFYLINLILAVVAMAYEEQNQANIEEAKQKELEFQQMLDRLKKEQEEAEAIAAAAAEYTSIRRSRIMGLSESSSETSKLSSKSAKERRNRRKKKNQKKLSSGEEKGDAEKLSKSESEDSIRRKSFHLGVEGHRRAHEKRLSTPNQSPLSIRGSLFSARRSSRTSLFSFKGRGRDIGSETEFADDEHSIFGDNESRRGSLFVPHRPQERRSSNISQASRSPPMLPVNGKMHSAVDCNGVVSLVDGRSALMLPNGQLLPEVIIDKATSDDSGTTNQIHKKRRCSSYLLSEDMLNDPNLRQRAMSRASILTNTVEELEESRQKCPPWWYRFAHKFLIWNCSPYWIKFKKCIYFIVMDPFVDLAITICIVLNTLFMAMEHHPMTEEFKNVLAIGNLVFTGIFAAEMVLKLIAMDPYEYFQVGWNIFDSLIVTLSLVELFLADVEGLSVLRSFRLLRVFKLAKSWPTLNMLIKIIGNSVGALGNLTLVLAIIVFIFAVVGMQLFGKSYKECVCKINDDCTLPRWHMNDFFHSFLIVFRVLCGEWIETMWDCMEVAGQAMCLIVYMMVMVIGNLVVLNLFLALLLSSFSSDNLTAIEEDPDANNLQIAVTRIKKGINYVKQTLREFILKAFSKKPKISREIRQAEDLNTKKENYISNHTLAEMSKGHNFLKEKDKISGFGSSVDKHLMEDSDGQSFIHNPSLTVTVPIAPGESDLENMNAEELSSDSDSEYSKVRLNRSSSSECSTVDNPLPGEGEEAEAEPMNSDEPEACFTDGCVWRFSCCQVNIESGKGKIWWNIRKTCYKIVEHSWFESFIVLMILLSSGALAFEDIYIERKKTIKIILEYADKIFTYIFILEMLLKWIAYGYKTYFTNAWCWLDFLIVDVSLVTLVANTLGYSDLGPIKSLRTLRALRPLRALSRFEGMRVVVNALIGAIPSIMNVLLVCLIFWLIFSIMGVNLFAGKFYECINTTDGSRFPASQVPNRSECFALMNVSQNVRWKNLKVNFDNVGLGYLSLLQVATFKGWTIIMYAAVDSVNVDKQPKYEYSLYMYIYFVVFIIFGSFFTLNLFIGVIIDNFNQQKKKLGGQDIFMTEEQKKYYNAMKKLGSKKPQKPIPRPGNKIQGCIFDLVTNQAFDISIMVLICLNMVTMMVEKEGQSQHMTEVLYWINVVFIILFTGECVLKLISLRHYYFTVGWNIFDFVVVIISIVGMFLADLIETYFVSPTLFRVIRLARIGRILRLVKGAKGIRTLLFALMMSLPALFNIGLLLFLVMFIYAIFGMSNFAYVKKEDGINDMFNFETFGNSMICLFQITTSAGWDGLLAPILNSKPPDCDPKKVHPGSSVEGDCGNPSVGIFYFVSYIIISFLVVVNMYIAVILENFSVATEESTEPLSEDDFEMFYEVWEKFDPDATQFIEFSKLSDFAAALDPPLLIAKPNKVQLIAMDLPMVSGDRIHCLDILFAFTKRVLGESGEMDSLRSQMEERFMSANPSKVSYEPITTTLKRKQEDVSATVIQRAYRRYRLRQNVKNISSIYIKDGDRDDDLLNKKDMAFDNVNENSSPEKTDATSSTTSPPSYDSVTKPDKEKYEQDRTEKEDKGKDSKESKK
Experiment: cell-based
Format: cell-based
Conditions: peptide at 20 μM; second of two Nav1.7 columns (probably TP2); 100% = no change
Measured Activity of Nav1.7 with peptide (percentage of the reference compound) accompanies every entry in the list below.
The reply should contain only the number, in %.

                                  substance  unit_text  reported_result
0  19 (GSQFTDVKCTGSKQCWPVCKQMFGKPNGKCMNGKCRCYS) [compound 19]          %              140
1  11 (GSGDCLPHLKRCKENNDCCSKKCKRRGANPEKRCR) [compound 11]          %               87
2  16 (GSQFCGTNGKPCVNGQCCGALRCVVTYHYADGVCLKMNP) [compound 16]          %               43
3  39 (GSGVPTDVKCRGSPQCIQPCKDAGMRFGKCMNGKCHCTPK) [compound 39]          %              110

Sure, the documented Activity of Nav1.7 with peptide (percentage of the reference compound) for 38 (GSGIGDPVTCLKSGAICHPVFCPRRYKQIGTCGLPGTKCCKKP) [compound 38] is 86

----------
Molecular target: Kir2.1 (Homo sapiens)
Construct: host or cells: HEK293 or CHO
Test: Ion channel panel (IonWorks Barracuda): Kir2.1
Type: cell-based
Conditions: peptide at 20 μM; 100% = no change, <100% = inhibition
Each entry below carries its recorded Activity of Kir2.1 with peptide (percentage of the reference compound).
Give just the number in %; leave the unit off.

Below, each entry is followed by its recorded Activity of Kir2.1 with peptide (percentage of the reference compound) result.
>>> print(df.to_string())
                                  substance  unit_text  reported_result
0  9 (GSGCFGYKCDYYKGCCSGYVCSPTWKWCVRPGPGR) [compound 9]          %              103
1  34 (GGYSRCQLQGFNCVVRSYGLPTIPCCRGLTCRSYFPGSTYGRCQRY) [compound 34]          %               50
2  13 (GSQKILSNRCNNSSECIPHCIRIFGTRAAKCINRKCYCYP) [compound 13]          %               98
3  29 (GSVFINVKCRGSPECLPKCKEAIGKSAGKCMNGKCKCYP) [compound 29]          %               97

For reference, reported Activity of Kir2.1 with peptide (percentage of the reference compound) for 3 (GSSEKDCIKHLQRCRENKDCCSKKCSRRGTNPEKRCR) [compound 3] stands at 93

# Activity of Kir2.1 with peptide (percentage of the reference compound) (substance: 10 (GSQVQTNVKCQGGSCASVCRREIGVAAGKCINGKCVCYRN) [compound 10] ) is 92

Given item 19 (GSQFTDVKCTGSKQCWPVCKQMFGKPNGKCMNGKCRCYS) [compound 19] , the value recorded as its Activity of Kir2.1 with peptide (percentage of the reference compound) is 93

Value of measured Activity of Kir2.1 with peptide (percentage of the reference compound) for the entry 26 (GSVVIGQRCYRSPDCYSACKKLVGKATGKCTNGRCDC) [compound 26] : 93

The substance listed as 27 (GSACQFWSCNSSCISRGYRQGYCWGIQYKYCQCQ) [compound 27] has a reported Activity of Kir2.1 with peptide (percentage of the reference compound) of 86

# Activity of Kir2.1 with peptide (percentage of the reference compound) (substance: 22 (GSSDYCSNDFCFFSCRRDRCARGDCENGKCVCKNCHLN) [compound 22] ) is 97

Query 15 (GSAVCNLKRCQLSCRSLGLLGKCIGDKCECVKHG) [compound 15] yields Activity of Kir2.1 with peptide (percentage of the reference compound) of 88

The recorded Activity of Kir2.1 with peptide (percentage of the reference compound) for 23 (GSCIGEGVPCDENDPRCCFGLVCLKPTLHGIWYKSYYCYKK) [compound 23] is 82

----------
Biological target: Kir2.1 (Homo sapiens, UniProt P63252)
Construct: host or cells: HEK293 or CHO
Sequence (P63252 whole entry): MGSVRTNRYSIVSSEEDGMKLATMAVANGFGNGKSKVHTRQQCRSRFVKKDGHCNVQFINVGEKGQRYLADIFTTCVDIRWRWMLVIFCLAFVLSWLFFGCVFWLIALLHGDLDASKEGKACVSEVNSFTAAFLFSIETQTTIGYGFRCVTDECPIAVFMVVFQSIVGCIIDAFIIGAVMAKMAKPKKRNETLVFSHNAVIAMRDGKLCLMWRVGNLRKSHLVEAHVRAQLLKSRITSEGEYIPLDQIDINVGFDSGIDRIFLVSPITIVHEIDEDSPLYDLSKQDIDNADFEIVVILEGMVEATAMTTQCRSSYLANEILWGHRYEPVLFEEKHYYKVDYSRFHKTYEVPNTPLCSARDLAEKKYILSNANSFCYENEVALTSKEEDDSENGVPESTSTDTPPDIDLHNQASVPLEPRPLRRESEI
Experiment: Ion channel panel (IonWorks Barracuda): Kir2.1
Assay type: cell-based
Details: peptide at 0.2 μM; 100% = no change, <100% = inhibition
ENDPOINT: Activity of Kir2.1 with peptide, expressed as a percentage of the reference compound (%)
Record the value in %, omitting the unit from your answer.

Use these answered entries as a reference point.
>>> df
                                  substance  unit_text  reported_result
0  2 (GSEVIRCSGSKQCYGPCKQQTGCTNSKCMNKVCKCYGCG) [compound 2]          %              101
1  9 (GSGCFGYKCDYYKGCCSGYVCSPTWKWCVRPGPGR) [compound 9]          %              105
2  32 (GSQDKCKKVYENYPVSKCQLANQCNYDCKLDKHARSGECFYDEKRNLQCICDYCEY) [compound 32]          %               95

Reported Activity of Kir2.1 with peptide, expressed as a percentage of the reference compound of 25 (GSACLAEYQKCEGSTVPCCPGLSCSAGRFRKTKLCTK) [compound 25] : 79

----------
Biological target: TRPA1 (Homo sapiens, UniProt O75762)
Construct: host or cells: HEK293 or CHO
Sequence (O75762 whole entry): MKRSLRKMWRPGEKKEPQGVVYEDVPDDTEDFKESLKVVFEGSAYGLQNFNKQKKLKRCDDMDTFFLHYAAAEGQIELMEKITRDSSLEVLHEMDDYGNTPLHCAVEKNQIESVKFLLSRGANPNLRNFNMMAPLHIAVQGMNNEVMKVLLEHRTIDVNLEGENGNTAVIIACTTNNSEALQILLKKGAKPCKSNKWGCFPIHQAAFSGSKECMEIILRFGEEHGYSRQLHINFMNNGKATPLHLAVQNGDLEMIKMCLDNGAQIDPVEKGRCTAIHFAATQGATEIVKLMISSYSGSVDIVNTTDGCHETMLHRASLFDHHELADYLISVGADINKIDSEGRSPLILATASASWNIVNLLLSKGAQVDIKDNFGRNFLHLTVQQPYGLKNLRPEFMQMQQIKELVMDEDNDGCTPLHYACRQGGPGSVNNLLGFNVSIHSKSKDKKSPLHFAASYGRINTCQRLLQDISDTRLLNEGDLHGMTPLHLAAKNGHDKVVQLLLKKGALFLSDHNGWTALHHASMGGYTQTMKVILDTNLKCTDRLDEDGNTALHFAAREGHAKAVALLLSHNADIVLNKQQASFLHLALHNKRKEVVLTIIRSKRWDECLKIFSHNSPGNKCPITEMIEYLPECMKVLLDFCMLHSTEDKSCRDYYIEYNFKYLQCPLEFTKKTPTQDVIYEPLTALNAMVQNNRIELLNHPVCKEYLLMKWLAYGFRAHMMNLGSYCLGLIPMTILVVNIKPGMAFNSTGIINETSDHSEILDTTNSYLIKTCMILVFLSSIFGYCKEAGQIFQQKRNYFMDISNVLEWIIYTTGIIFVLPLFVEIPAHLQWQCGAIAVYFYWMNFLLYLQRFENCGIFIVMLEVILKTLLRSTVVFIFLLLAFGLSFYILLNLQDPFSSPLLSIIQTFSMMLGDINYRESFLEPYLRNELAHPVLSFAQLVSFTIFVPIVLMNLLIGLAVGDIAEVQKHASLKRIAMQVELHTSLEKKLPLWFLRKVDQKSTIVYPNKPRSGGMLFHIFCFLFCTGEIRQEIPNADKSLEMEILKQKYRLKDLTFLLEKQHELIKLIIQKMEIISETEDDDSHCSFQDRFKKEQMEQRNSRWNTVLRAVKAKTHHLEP
Test: Ion channel panel (IonWorks Barracuda): TRPA1
Format: cell-based
Conditions: peptide at 20 μM; 100% = no change, <100% = inhibition
The entries below come with measured Activity of TRPA1 with peptide (percentage of the reference compound) values attached.
Express it in %; write the number only.

See these solved cases before continuing.
>>> df
                                  substance                         tested_system  reported_result
0  23 (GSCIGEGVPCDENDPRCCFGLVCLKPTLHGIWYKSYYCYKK) [compound 23]  TRPA1 (Homo sapiens, UniProt O75762)               83
1  3 (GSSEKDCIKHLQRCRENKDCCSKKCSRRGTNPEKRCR) [compound 3]  TRPA1 (Homo sapiens, UniProt O75762)              117
2  34 (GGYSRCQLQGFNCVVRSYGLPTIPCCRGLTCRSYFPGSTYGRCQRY) [compound 34]  TRPA1 (Homo sapiens, UniProt O75762)               97
3  30 (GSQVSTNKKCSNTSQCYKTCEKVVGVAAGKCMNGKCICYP) [compound 30]  TRPA1 (Homo sapiens, UniProt O75762)              111
4  9 (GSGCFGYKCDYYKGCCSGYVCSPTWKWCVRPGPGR) [compound 9]  TRPA1 (Homo sapiens, UniProt O75762)              112
5  10 (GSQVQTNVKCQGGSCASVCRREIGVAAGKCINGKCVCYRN) [compound 10]  TRPA1 (Homo sapiens, UniProt O75762)              107
6  4 (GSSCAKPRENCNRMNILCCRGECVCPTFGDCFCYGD) [compound 4]  TRPA1 (Homo sapiens, UniProt O75762)              119
7  20 (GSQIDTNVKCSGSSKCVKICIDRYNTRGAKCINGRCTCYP) [compound 20]  TRPA1 (Homo sapiens, UniProt O75762)              114

Kindly review the next substance as well.
Looking up 14 (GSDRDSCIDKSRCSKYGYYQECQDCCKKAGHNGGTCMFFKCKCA) [compound 14] , I found its Activity of TRPA1 with peptide (percentage of the reference compound) recorded as 66

----------
Target: Kv1.1 (Homo sapiens)
Construct: host or cells: HEK293 or CHO
Sequence (Q09470 whole entry): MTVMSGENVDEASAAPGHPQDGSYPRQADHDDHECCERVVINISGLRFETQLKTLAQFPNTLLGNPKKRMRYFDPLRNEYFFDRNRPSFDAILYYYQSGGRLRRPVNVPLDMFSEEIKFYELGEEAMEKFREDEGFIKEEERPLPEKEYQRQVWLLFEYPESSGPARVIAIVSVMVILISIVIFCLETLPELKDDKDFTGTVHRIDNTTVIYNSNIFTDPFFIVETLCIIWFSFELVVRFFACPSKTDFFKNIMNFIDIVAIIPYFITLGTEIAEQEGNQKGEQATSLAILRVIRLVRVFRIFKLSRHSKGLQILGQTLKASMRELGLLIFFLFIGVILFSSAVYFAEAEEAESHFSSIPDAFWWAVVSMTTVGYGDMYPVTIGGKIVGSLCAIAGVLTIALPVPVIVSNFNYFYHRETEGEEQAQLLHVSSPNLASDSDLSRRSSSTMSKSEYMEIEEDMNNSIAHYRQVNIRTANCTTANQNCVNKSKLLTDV
Assay: cell-based
Format: cell-based
Details: peptide at 0.2 μM; 100% = no change, <100% = inhibition
ENDPOINT: Activity of Kv1.1 with peptide, expressed as a percentage of the reference compound (%)
Provide the reading as a plain figure in %.

Considering 38 (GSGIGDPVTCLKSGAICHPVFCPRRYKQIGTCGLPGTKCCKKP) [compound 38] , its Activity of Kv1.1 with peptide, expressed as a percentage of the reference compound with Kv1.1 (Homo sapiens) was recorded as 97

I looked up 23 (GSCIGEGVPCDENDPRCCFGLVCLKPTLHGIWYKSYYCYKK) [compound 23] and its Activity of Kv1.1 with peptide, expressed as a percentage of the reference compound for Kv1.1 (Homo sapiens) was 95

So the reported Activity of Kv1.1 with peptide, expressed as a percentage of the reference compound for 19 (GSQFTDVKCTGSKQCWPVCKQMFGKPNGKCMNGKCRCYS) [compound 19] , on Kv1.1 (Homo sapiens), turned out to be 100

Kv1.1 (Homo sapiens) data for 3 (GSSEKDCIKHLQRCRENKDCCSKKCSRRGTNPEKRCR) [compound 3] ; its Activity of Kv1.1 with peptide, expressed as a percentage of the reference compound: 99

Form: item 5 (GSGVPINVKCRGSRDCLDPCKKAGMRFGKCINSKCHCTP) [compound 5] ; test system Kv1.1 (Homo sapiens); Activity of Kv1.1 with peptide, expressed as a percentage of the reference compound: 86

Bench note, Kv1.1 (Homo sapiens): 18 (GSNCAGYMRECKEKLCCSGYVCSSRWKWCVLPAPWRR) [compound 18] , Activity of Kv1.1 with peptide, expressed as a percentage of the reference compound reads 98

Lab note: substance 6 (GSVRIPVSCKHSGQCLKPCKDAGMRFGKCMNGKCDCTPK) [compound 6] tested on Kv1.1 (Homo sapiens); recorded Activity of Kv1.1 with peptide, expressed as a percentage of the reference compound was 96

Readout Activity of Kv1.1 with peptide, expressed as a percentage of the reference compound for 9 (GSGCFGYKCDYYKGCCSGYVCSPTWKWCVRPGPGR) [compound 9] , test system Kv1.1 (Homo sapiens), was 103

Test item 22 (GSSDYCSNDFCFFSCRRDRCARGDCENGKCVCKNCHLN) [compound 22] ; Kv1.1 (Homo sapiens); reported Activity of Kv1.1 with peptide, expressed as a percentage of the reference compound was 83

Bench note, Kv1.1 (Homo sapiens): entry 15 (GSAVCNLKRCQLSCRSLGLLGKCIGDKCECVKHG) [compound 15] , its Activity of Kv1.1 with peptide, expressed as a percentage of the reference compound = 69

Test item 27 (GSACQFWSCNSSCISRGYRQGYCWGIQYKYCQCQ) [compound 27] ; Kv1.1 (Homo sapiens); reported Activity of Kv1.1 with peptide, expressed as a percentage of the reference compound was 81

Readout Activity of Kv1.1 with peptide, expressed as a percentage of the reference compound for 14 (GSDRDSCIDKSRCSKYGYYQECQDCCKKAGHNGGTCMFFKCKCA) [compound 14] , test system Kv1.1 (Homo sapiens), was 79

Measured Activity of Kv1.1 with peptide, expressed as a percentage of the reference compound (Kv1.1 (Homo sapiens)), entry 24 (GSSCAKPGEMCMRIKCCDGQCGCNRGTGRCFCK) [compound 24] : 65
